- experimental system: UniProt:A0A8I3MXG6
- Sequence (A0A8I3MXG6 1-394): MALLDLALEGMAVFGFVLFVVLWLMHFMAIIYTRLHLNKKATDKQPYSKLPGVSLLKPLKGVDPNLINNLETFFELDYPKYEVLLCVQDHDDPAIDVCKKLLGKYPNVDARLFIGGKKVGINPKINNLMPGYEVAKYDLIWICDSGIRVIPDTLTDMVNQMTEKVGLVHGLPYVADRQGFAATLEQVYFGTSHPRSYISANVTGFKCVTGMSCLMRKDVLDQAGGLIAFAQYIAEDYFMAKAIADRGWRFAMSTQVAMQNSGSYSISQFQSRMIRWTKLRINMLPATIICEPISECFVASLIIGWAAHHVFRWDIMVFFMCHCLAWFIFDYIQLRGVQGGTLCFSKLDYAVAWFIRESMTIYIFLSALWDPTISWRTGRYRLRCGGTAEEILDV
- assay info: Assay 1: GCS Enzymatic Assay (MDCK cell lysate, C6-NBD-Ceramide, LC/MS)
- Type: biochemical, canine
- study conditions: Table 1; MDCK cell lysate; read-out: IC50 (nM) generated from Assay 1
endpoint name: IC50

Study these solved cases before continuing.
Prompt: Look up IC50 for this compound: O=C(N[C@H](CN1CCC1)[C@H](O)c1ccc2c(c1)OCCO2)C(F)(F)c1cc2cc(Cl)ccc2o1 [Compound 32D]
Response: < 50 nM

Prompt: Can you handle `O=C(N[C@H](CN1CCCC1)[C@H](O)c1ccc2c(c1)OCCO2)C(F)(F)Cc1ccc2ccccc2c1` next?
Response: 50 to 5000 nM

Prompt: Can you handle O=C(N[C@H](CN1CCCC1)[C@@H](O)c1cc2c(cc1F)OCCO2)C(F)(F)C1Cc2ccccc2C1 [Compound 12B] next?
Response: 50 to 5000 nM

Prompt: Can you handle `O=C(N[C@H](CN1CCCC1)[C@H](O)c1ccc2c(c1)OCCO2)C(F)(F)C1Cc2cc(Cl)c(Cl)cc2C1` next?
Response: < 50 nM

Prompt: Can you handle `O=C(N[C@H](CN1CCCC1)[C@H](O)c1ccc2c(c1)OCCO2)C(F)(F)C1Cc2ccccc2C1` next?
Response: < 50 nM

New cases:
Prompt: Look up IC50 for this compound: `O=C(N[C@H](CN1CCCC1)[C@H](O)c1ccc2c(c1)OCCO2)C(=O)c1cc2cc(Cl)ccc2o1`
Response: < 50 nM

Prompt: Can you handle O=C(N[C@H](CN1CCCC1)[C@H](O)c1ccc2c(c1)OCCO2)C(=O)C1Cc2ccc(-c3ccccn3)cc2C1 (stereo partly shown) next?
Response: < 50 nM

Prompt: Can you handle `O=C(N[C@H](CN1CCCC1)[C@H](O)c1ccc2c(c1)OCCO2)C(F)(F)CCc1ccc2ccccc2c1` next?
Response: < 50 nM

Reference source for all entries: patent US10227323B2
